target.or.system: HCMV polymerase (Human cytomegalovirus, UniProt P08546)
Construct: made in house; host or cells: recombinant baculovirus-infected SF-9 cells
Sequence (P08546 whole entry): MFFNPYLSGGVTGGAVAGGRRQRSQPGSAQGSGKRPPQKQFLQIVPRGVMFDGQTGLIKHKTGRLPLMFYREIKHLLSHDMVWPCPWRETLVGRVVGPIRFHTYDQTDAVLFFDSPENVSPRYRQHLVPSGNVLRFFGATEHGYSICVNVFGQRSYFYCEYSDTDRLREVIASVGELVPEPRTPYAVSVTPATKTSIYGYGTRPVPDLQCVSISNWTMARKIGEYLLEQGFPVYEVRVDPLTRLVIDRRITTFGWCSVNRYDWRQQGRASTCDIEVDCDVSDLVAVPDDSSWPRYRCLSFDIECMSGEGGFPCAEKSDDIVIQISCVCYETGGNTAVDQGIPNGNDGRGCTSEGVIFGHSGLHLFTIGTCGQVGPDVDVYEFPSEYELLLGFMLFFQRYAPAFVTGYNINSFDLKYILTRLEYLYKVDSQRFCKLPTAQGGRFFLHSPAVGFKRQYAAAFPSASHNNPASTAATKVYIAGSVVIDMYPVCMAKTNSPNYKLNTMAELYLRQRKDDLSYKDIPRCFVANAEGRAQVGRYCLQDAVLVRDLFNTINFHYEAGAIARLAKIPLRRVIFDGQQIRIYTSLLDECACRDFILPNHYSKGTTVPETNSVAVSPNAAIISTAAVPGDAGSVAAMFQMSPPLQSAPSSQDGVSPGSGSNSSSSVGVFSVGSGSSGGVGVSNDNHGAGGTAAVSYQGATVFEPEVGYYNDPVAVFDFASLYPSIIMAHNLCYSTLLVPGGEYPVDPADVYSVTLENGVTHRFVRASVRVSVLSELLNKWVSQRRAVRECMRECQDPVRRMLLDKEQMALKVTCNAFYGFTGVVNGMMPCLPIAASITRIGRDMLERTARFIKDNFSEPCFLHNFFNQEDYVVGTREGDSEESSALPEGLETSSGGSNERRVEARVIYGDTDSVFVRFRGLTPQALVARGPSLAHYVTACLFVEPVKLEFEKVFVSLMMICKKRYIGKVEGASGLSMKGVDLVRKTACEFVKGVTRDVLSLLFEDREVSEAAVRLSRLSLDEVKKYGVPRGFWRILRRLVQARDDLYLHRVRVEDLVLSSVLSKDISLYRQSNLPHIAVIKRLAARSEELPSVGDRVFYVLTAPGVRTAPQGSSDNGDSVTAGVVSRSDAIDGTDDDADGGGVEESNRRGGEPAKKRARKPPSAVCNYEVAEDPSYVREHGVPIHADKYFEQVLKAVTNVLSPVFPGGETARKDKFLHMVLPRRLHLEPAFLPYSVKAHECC
run.description: HCMV polymerase assay (scintillation proximity assay)
Assay type: biochemical
condition: pol type CMV; Table 2; read-out: IC50
Consider the cut-off 10 µM. If the recorded IC50 is strictly smaller, the label is Condition met; if not, the label is Condition not met.

[
  {
    "mol": "Cc1ccc2c(Cl)cc(S(=O)(=O)NCc3ccccc3)c(O)c2n1",
    "class": "Condition not met"
  },
  {
    "mol": "Cc1ccc2c(Cl)cc(S(=O)(=O)NCCc3ccc(Cl)cc3Cl)c(O)c2n1",
    "class": "Condition met"
  },
  {
    "mol": "O=S(=O)(Nc1ccc(Cl)cc1)c1cc(Cl)c2cccnc2c1O",
    "class": "Condition not met"
  }
]

Q. Problem: For the compound "O=S(=O)(NCc1ccc(Cl)cc1)c1cc(Cl)c2cccnc2c1O" , is IC50 under 10 µM?
A. Condition not met

Q. Problem: For the compound "CC(C)(C)c1ccc2c(Cl)cc(S(=O)(=O)NCc3ccc(Cl)cc3)c(O)c2n1" , is IC50 under 10 µM?
A. Condition not met

----------
Some compounds, each annotated with its measured inhibition at 12.5 µM.
target.or.system: CMV polymerase (Human cytomegalovirus)
Construct: made in house; host or cells: recombinant baculovirus-infected SF-9 cells
Sequence (P08546 whole entry): as above
run.description: modified version of the HCMV polymerase assay (100% DMSO dilution, DTT, different enzyme lot)
Format: biochemical
condition: Concentration 12.5 μM; Table 6
Give your result in % as a bare value.

[
  {
    "mol": "Cc1ccc2c(Cl)cc(S(=O)(=O)NCCc3ccc(NS(=O)(=O)c4c(C)noc4C)cc3)c(O)c2n1",
    "target.or.system": "CMV polymerase (Human cytomegalovirus)",
    "recorded.number": -13
  },
  {
    "mol": "Cc1ccc2c(Cl)cc(S(=O)(=O)NCCc3ccc(Cl)cc3)c(O)c2n1",
    "target.or.system": "CMV polymerase (Human cytomegalovirus)",
    "recorded.number": 31
  },
  {
    "mol": "Cc1ccc2c(Cl)cc(S(=O)(=O)NCCc3ccccn3)c(O)c2n1",
    "target.or.system": "CMV polymerase (Human cytomegalovirus)",
    "recorded.number": 6
  },
  {
    "mol": "Cc1ccc2c(Cl)cc(S(=O)(=O)NCc3ccccn3)c(O)c2n1",
    "target.or.system": "CMV polymerase (Human cytomegalovirus)",
    "recorded.number": -3
  },
  {
    "mol": "O=S(=O)(NCCSc1ccccc1)c1cc(Cl)c2ccc(/C=C/c3ccccc3)nc2c1O",
    "target.or.system": "CMV polymerase (Human cytomegalovirus)",
    "recorded.number": 49
  }
]

Form field inhibition at 12.5 µM, entry "Cc1ccc2c(Cl)cc(S(=O)(=O)NCCCCc3ccccc3)c(O)c2n1" : 23

----------
target.or.system: HCMV polymerase (Human cytomegalovirus, UniProt P08546)
Construct: made in house; host or cells: recombinant baculovirus-infected SF-9 cells
run.description: HCMV polymerase assay (scintillation proximity assay)
Assay type: biochemical
condition: Table 10; CMV pol Assay; read-out: IC50
pIC50: −log10 of the molar value.
Rule: pIC50 under 5 gives Criterion not met, otherwise Criterion met.

Some solved cases for reference:
[
  {
    "compound": "O=C(Nc1ccc(OCc2ccccc2)cc1)c1ccc2cccnc2c1O",
    "class": "Criterion met"
  },
  {
    "compound": "O=C(Nc1ccc2ccccc2c1)c1ccc2cccnc2c1O",
    "class": "Criterion not met"
  },
  {
    "compound": "O=C(Nc1ccc(Br)cc1F)c1ccc2cccnc2c1O",
    "class": "Criterion met"
  }
]

Q. Quick check: does "COc1ccc(NC(=O)c2ccc3cccnc3c2O)c([N+](=O)[O-])c1" have pIC50 greater than or equal to 5?
A. Criterion not met

Q. Quick check: does "O=C(Nc1cccc(Cl)c1)c1ccc2cccnc2c1O" have pIC50 greater than or equal to 5?
A. Criterion met

Q. Quick check: does O=C(Nc1cc(C(F)(F)F)ccc1Cl)c1ccc2cccnc2c1O [drawing 221] have pIC50 greater than or equal to 5?
A. Criterion not met

Q. Quick check: does Cc1ccc(NC(=O)c2ccc3cccnc3c2O)c(C)c1 [drawing 223] have pIC50 greater than or equal to 5?
A. Criterion not met

Q. Quick check: does "O=C(Nc1ccc(CO)cc1)c1ccc2cccnc2c1O" have pIC50 greater than or equal to 5?
A. Criterion met

Q. Quick check: does "COc1ccc(NC(=O)c2ccc3cccnc3c2O)cc1" have pIC50 greater than or equal to 5?
A. Criterion not met

Q. Quick check: does "O=C(Nc1ccccc1F)c1ccc2cccnc2c1O" have pIC50 greater than or equal to 5?
A. Criterion not met

Q. Quick check: does "Cc1c(NC(=O)c2ccc3cccnc3c2O)cccc1[N+](=O)[O-]" have pIC50 greater than or equal to 5?
A. Criterion met

Q. Quick check: does "CSc1cccc(NC(=O)c2ccc3cccnc3c2O)c1" have pIC50 greater than or equal to 5?
A. Criterion not met

Q. Quick check: does "O=C(Nc1ccc(Oc2ccccc2)cc1)c1ccc2cccnc2c1O" have pIC50 greater than or equal to 5?
A. Criterion met

Q. Quick check: does "O=C(Nc1ccc(F)cc1F)c1ccc2cccnc2c1O" have pIC50 greater than or equal to 5?
A. Criterion not met

Q. Quick check: does "N#Cc1ccccc1NC(=O)c1ccc2cccnc2c1O" have pIC50 greater than or equal to 5?
A. Criterion not met

Q. Quick check: does "O=C(Nc1ccccc1-n1cccc1)c1ccc2cccnc2c1O" have pIC50 greater than or equal to 5?
A. Criterion not met

Q. Quick check: does "O=C(Nc1cc(F)c(F)cc1F)c1ccc2cccnc2c1O" have pIC50 greater than or equal to 5?
A. Criterion not met

Q. Quick check: does "O=C(Nc1cc(Cl)c(O)c(Cl)c1)c1ccc2cccnc2c1O" have pIC50 greater than or equal to 5?
A. Criterion not met

----------
target.or.system: CMV polymerase (Human cytomegalovirus)
Construct: made in house; host or cells: recombinant baculovirus-infected SF-9 cells
run.description: modified version of the HCMV polymerase assay (100% DMSO dilution, DTT, different enzyme lot)
Format: biochemical
condition: Concentration 3.13 μM; Table 6
Some compounds, each annotated with its measured inhibition at 3.13 µM.
Give your result in % as a bare value.

[
  {
    "compound": "Cc1ccc2c(Cl)cc(S(=O)(=O)NCc3ccccn3)c(O)c2n1 [Example 59]",
    "readout.unit": "%",
    "recorded.number": -7
  },
  {
    "compound": "Cc1ccc2c(Cl)cc(S(=O)(=O)NCCc3ccc(Cl)cc3)c(O)c2n1 [Example 60]",
    "readout.unit": "%",
    "recorded.number": 30
  },
  {
    "compound": "Cc1ccc2c(Cl)cc(S(=O)(=O)NCCc3ccc(NS(=O)(=O)c4c(C)noc4C)cc3)c(O)c2n1 [Example 65]",
    "readout.unit": "%",
    "recorded.number": -8
  },
  {
    "compound": "Cc1ccc2c(Cl)cc(S(=O)(=O)NCCCCc3ccccc3)c(O)c2n1 [Example 61]",
    "readout.unit": "%",
    "recorded.number": 13
  },
  {
    "compound": "Cc1ccc2c(Cl)cc(S(=O)(=O)NCCc3ccccn3)c(O)c2n1 [Example 62]",
    "readout.unit": "%",
    "recorded.number": 1
  }
]

// next entry
Form field inhibition at 3.13 µM, entry O=S(=O)(NCCSc1ccccc1)c1cc(Cl)c2ccc(/C=C/c3ccccc3)nc2c1O [Example 63] : 29

----------
Some compounds, each annotated with its measured pIC50.
target.or.system: HCMV polymerase (Human cytomegalovirus, UniProt P08546)
Construct: made in house; host or cells: recombinant baculovirus-infected SF-9 cells
run.description: HCMV polymerase assay (scintillation proximity assay)
Type: biochemical
condition: Table 10; CMV pol Assay; read-out: IC50
# pIC50 = -log10(concentration in molar units)

These recorded examples may help you get a feel for the data.
[
  {
    "mol": "O=C(Nc1ccc(F)c(F)c1)c1ccc2cccnc2c1O",
    "target.or.system": "HCMV polymerase (Human cytomegalovirus, UniProt P08546)",
    "reported.metric": "pIC50",
    "recorded.number": 4.08
  },
  {
    "mol": "O=C(Nc1cc(C(F)(F)F)cc(C(F)(F)F)c1)c1ccc2cccnc2c1O",
    "target.or.system": "HCMV polymerase (Human cytomegalovirus, UniProt P08546)",
    "reported.metric": "pIC50",
    "recorded.number": 4.17
  },
  {
    "mol": "O=C(Nc1cc(Br)ccc1Br)c1ccc2cccnc2c1O",
    "target.or.system": "HCMV polymerase (Human cytomegalovirus, UniProt P08546)",
    "reported.metric": "pIC50",
    "recorded.number": 5.00
  },
  {
    "mol": "O=C(Nc1cccc2cccnc12)c1ccc2cccnc2c1O",
    "target.or.system": "HCMV polymerase (Human cytomegalovirus, UniProt P08546)",
    "reported.metric": "pIC50",
    "recorded.number": 4.99
  }
]

// next entry
Lab entry: HCMV polymerase (Human cytomegalovirus, UniProt P08546) assay, compound "O=C(Nc1ccccc1Cl)c1ccc2cccnc2c1O" , pIC50 = 5.03
